Target: Wee1 kinase domain (Homo sapiens)
Construct: Wee1 kinase domain was purchased from Carna (catalog #05-177); purchased Carna 05-177
Experiment: Wee1 Kinase Biochemical Assay (ADP-Glo)
Details: Wee1 kinase domain, 15 uM ATP, ADP-Glo
Procedure: Wee1 Kinase Biochemical Assay Protocol Wee1 kinase domain was purchased from Carna (catalog #05-177). Wee1 kinase activity was determined with Poly(Lys,Tyr 4:1) hydrobromide as a substrate (Sigma-Aldrich) and by measuring ADP production using the ADP-Glo Kinase Assay kit (Promega) following the manufacturer's instructions. […] The ADP-Glo signal was measured using the Envision plate reader and the percentage inhibition of kinase activity calculated for each inhibitor tested. […]
endpoint: IC50

Would you please look over these solved cases?
C[C@H]1COC(=O)N1c1cccc(N2c3nc(Nc4ccc(OC5CCN(C)CC5)nc4)ncc3[C@]3(C)COC(C)(C)C[C@H]23)n1 (single isomer, unassigned) : 100 to 1000 nM
CN1C[C@H]2C[C@@H]1CN2c1ccc(Nc2ncc3c(n2)N(c2cccc(N=S(C)(C)=O)n2)[C@@H]2CC(C)(C)OC[C@]32C)cc1 (single isomer, unassigned) : < 10 nM
Cn1ccc(Nc2ncc3c(n2)N(c2cccc(N=S(C)(C)=O)n2)[C@@H]2CC(C)(C)OC[C@]32C)cc1=O (single isomer, unassigned) : < 10 nM
CC1(C)C[C@H]2N(c3cccc(N=S(C)(C)=O)n3)c3nc(Nc4ccc([C@@]5(C)CCNC5)cc4)ncc3[C@@]2(C)CO1 (single isomer, unassigned) : 10 to 100 nM

Please find the next compound below.
// IC50 lookup, key: CC1(C)C[C@H]2N(c3cccc(N=S(C)(C)=O)n3)c3nc(Nc4cnn(C5COC5)c4)ncc3[C@@]2(C)CO1 (single isomer, unassigned)
< 10 nM

###

Recorded IC50 by entry
biological target: Wee1 kinase domain (Homo sapiens, UniProt P30291); construct: Wee1 kinase domain was purchased from Carna (catalog #05-177); purchased Carna 05-177; test: Wee1 Kinase Biochemical Assay (ADP-Glo); details: Wee1 kinase domain, 15 uM ATP, ADP-Glo
Sequence (P30291 299-569 limits assumed): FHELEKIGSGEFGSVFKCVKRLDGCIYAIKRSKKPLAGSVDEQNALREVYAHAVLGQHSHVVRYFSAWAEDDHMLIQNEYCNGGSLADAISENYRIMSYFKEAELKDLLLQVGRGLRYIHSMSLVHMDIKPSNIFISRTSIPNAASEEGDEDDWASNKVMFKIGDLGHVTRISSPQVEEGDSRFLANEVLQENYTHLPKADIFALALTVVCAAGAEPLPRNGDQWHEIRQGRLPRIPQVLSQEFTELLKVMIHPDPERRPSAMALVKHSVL

Cc1cc(Nc2ncc3c(n2)N(c2cccc(C(C)(C)O)n2)[C@@H]2CC(C)(C)OC[C@]32C)ccc1N1CCN(C)CC1 (single isomer, unassigned) : < 10 nM

Entry C[C@H]1COC(=O)N1c1cccc(N2c3nc(Nc4ccc(N5C[C@H]6C[C@@H]5CN6C)cc4)ncc3[C@@]3(C)COC(C)(C)C[C@@H]23)n1 (single isomer, unassigned) has what IC50?
< 10 nM

What does the data say about its IC50? Entry: CN1C[C@@H]2C[C@H]1CN2c1ccc(Nc2ncc3c(n2)N(c2cccc(N=S(C)(C)=O)n2)[C@@H]2CC(C)(C)OC[C@]32C)cc1F (single isomer, unassigned)
< 10 nM

I am curious: what IC50 value has been reported for CN1CCC(c2cc(Nc3ncc4c(n3)N(c3cccc(N=S(C)(C)=O)n3)[C@H]3CC(C)(C)OC[C@@]43C)on2)CC1 (single isomer, unassigned) ?
100 to 1000 nM

Recorded IC50 of CNCc1cccc(N2c3nc(Nc4ccc(C5CCOCC5)cc4)ncc3[C@]3(C)COC(C)(C)C[C@H]23)n1 (single isomer, unassigned) , please.
10 to 100 nM

###

tested on: phosphorylation of Cdc2 Y15 (Wee1 substrate) in A427 cells; experiment: Phosphorylated Cdc2 MSD Electrochemiluminescence Assay; format: cell-based; conditions: Homo sapiens, A-427, pCDC2 MSD
pIC50: −log10 of the molar value.
endpoint: pIC50

CNCc1cccc(N2c3nc(Nc4ccc(C5CCOCC5)cc4)ncc3[C@@]3(C)COC(C)(C)C[C@@H]23)n1 (single isomer, unassigned) [Example 35] : 6.00 to 7.00

Name the recorded pIC50 for CN1CC[C@H](n2cc(Nc3ncc4c(n3)N(c3cccc(N=S(C)(C)=O)n3)[C@@H]3CC(C)(C)OC[C@]43C)cn2)C1 (single isomer, unassigned) [Example 198] .
6.00 to 7.00

Quick one: pIC50 of C[C@@H]1CN(c2ccc(Nc3ncc4c(n3)N(c3cccc(N5C(=O)OC[C@@H]5C)n3)[C@@H]3CC(C)(C)OC[C@]43C)cc2)CCN1C (single isomer, unassigned) [Example 313] ?
6.00 to 7.00

Entry C[C@H]1COC(=O)N1c1cccc(N2c3nc(Nc4ccc([C@H]5CCN(C)C5)nc4)ncc3[C@@]3(C)COC(C)(C)C[C@@H]23)n1 (single isomer, unassigned) [Example 263] has what pIC50?
> 7.00

Please look up its pIC50: C[C@H]1COC(=O)N1c1cccc(N2c3nc(Nc4ccc([C@@H]5CCN(C)C5)cc4)ncc3[C@@]3(C)COC(C)(C)C[C@@H]23)n1 (single isomer, unassigned) [Example 305]
6.00 to 7.00
